# credit: the supplement of paper PMC10307832

System: SW 1573
Experiment: relative viability (nuclei count vs DMSO), 5 days (fraction); higher = more cells survive
Conditions: first compound 0.1265 µM
API: label(entry) gives Yes if the entry's relative viability is strictly smaller than 0.8; on equality or larger values it gives No.

Prompt: State whether 0.8 exceeds relative viability recorded for COc1cc(N2CCC(C(N)=O)CC2)ccc1Nc1nc(N)c(Cl)c(Nc2ccccc2S(=O)(=O)C(C)C)n1 [HG-5-88-01] + O=C(CCCCCCC(=O)Nc1ccccc1)NO [Vorinostat] (partner 1 µM) .
Completion: No

Prompt: State whether 0.8 exceeds relative viability recorded for Clc1ccc(Nc2nnc(Cc3ccncc3)c3ccccc23)cc1 [Vatalanib] + COc1cc2c(Oc3ccc(NC(=O)C4(C(=O)Nc5ccc(F)cc5)CC4)cc3F)ccnc2cc1OCCCN1CCOCC1 [Foretinib] (partner 0.25 µM) .
Completion: No

Prompt: State whether 0.8 exceeds relative viability recorded for C[C@@H]1CN(CC(=O)Nc2ccc3c(c2)Cc2cccc(-c4cc(=O)cc(N5CCOCC5)o4)c2S3)C[C@H](C)O1 + COc1cccc2cc(-c3nc([C@H]4CC[C@H](C(=O)O)CC4)n4ncnc(N)c34)[nH]c12 [OSI-027] (partner 0.5 µM) .
Completion: Yes

Prompt: State whether 0.8 exceeds relative viability recorded for Clc1ccc(Nc2nnc(Cc3ccncc3)c3ccccc23)cc1 [Vatalanib] + CS(=O)(=O)N1CCN(Cc2cc3nc(-c4cccc5[nH]ncc45)nc(N4CCOCC4)c3s2)CC1 [Pictilisib] (partner 1 µM) .
Completion: Yes

Prompt: State whether 0.8 exceeds relative viability recorded for C[C@@H]1CN(CC(=O)Nc2ccc3c(c2)Cc2cccc(-c4cc(=O)cc(N5CCOCC5)o4)c2S3)C[C@H](C)O1 + Cc1nc(NC(=O)N2CCC[C@H]2C(N)=O)sc1-c1ccnc(C(C)(C)C(F)(F)F)c1 [Alpelisib] (partner 2 µM) .
Completion: No

Prompt: State whether 0.8 exceeds relative viability recorded for COc1cc(N2CCC(C(N)=O)CC2)ccc1Nc1nc(N)c(Cl)c(Nc2ccccc2S(=O)(=O)C(C)C)n1 [HG-5-88-01] + Cc1nc(NC(=O)N2CCC[C@H]2C(N)=O)sc1-c1ccnc(C(C)(C)C(F)(F)F)c1 [Alpelisib] (partner 2 µM) .
Completion: Yes

* * *

I'd be grateful if you could share measured relative viability for these entries.
System: LCLC-103H
Test: relative viability (nuclei count vs DMSO), 5 days (fraction); higher = more cells survive
Conditions: first compound 0.03162 µM
Answer field: number only, no words.

Prompt: Fill blank: measured relative viability of the compound CC(C)Oc1cc(Nc2nc(N[C@@H](C)c3ccc(F)cn3)ncc2Cl)n[nH]1 [AZ23] + COc1cccc2cc(-c3nc([C@H]4CC[C@H](C(=O)O)CC4)n4ncnc(N)c34)[nH]c12 [OSI-027] (partner 0.5 µM) is ____.
Completion: 0.505

Prompt: Fill blank: measured relative viability of the compound CC(C)Oc1cc(Nc2nc(N[C@@H](C)c3ccc(F)cn3)ncc2Cl)n[nH]1 [AZ23] + CC(=O)Nc1cccc(-n2c(=O)n(C3CC3)c(=O)c3c(Nc4ccc(I)cc4F)n(C)c(=O)c(C)c32)c1 [Trametinib] (partner 0.02 µM) is ____.
Completion: 0.7

Prompt: Fill blank: measured relative viability of the compound CC(C)Oc1cc(Nc2nc(N[C@@H](C)c3ccc(F)cn3)ncc2Cl)n[nH]1 [AZ23] + Cc1nc(Nc2ncc(C(=O)Nc3c(C)cccc3Cl)s2)cc(N2CCN(CCO)CC2)n1 [Dasatinib] (partner 0.075 µM) is ____.
Completion: 0.576

Prompt: Fill blank: measured relative viability of the compound CC(C)Oc1cc(Nc2nc(N[C@@H](C)c3ccc(F)cn3)ncc2Cl)n[nH]1 [AZ23] + CS(=O)(=O)N1CCN(Cc2cc3nc(-c4cccc5[nH]ncc45)nc(N4CCOCC4)c3s2)CC1 [Pictilisib] (partner 1 µM) is ____.
Completion: 0.555

* * *

Tested on: COR-L23
Assay: relative viability (nuclei count vs DMSO), 5 days (fraction); higher = more cells survive
Conditions: first compound 8 µM
observed_property: relative viability
Answer field: number only, no words.

Prompt: Fill blank: measured relative viability of the molecule CCCCCCCCCCCC1=C(O)C(=O)C=C(O)C1=O [Embelin] + CC(=O)Nc1cccc(-n2c(=O)n(C3CC3)c(=O)c3c(Nc4ccc(I)cc4F)n(C)c(=O)c(C)c32)c1 [Trametinib] (partner 0.02 µM) is ____.
Completion: 0.608

Prompt: Fill blank: measured relative viability of the molecule CCCCCCCCCCCC1=C(O)C(=O)C=C(O)C1=O [Embelin] + CC(C)C[C@H](NC(=O)[C@H](Cc1ccccc1)NC(=O)c1cnccn1)B(O)O [Bortezomib] (partner 0.002 µM) is ____.
Completion: 1.21

Prompt: Fill blank: measured relative viability of the molecule CCCCCCCCCCCC1=C(O)C(=O)C=C(O)C1=O [Embelin] + Nc1ncn([C@H]2C[C@H](O)[C@@H](CO)O2)c(=O)n1 [Decitabine] (partner 2 µM) is ____.
Completion: 0.393

Prompt: Fill blank: measured relative viability of the molecule CCCCCCCCCCCC1=C(O)C(=O)C=C(O)C1=O [Embelin] + Nc1nc2[nH]cc(CCc3ccc(C(=O)N[C@@H](CCC(=O)O)C(=O)O)cc3)c2c(=O)[nH]1 [Pemetrexed] (partner 0.2 µM) is ____.
Completion: 0.191

Prompt: Fill blank: measured relative viability of the molecule CCCCCCCCCCCC1=C(O)C(=O)C=C(O)C1=O [Embelin] + CC(=O)c1c(C)c2cnc(Nc3ccc(N4CCNCC4)cn3)nc2n(C2CCCC2)c1=O [Palbociclib] (partner 0.5 µM) is ____.
Completion: 0.299

* * *

Test system: NCI-H460
Assay: relative viability (nuclei count vs DMSO), 5 days (fraction); higher = more cells survive
Conditions: first compound 4 µM
observed_property: relative viability

Prompt: Fill blank: measured relative viability of the compound Clc1ccc(Nc2nnc(Cc3ccncc3)c3ccccc23)cc1 [Vatalanib] + O=C(c1cc(Cc2n[nH]c(=O)c3ccccc23)ccc1F)N1CCN(C(=O)C2CC2)CC1 [Olaparib] (partner 8 µM) is ____.
Completion: 0.377

Prompt: Fill blank: measured relative viability of the compound C[C@@H]1CN(CC(=O)Nc2ccc3c(c2)Cc2cccc(-c4cc(=O)cc(N5CCOCC5)o4)c2S3)C[C@H](C)O1 + COc1cccc2cc(-c3nc([C@H]4CC[C@H](C(=O)O)CC4)n4ncnc(N)c34)[nH]c12 [OSI-027] (partner 0.5 µM) is ____.
Completion: 0.253

* * *

Test system: A549
Assay: relative viability (nuclei count vs DMSO), 5 days (fraction); higher = more cells survive
Settings: first compound 0.3162 µM
observed_property: relative viability

Prompt: Fill blank: measured relative viability of the compound CC(C)Oc1cc(Nc2nc(N[C@@H](C)c3ccc(F)cn3)ncc2Cl)n[nH]1 [AZ23] + N=C(N)NC(=N)NCCc1ccccc1 [Phenformin] (partner 250 µM) is ____.
Completion: 0.176

Prompt: Fill blank: measured relative viability of the compound CC(C)Oc1cc(Nc2nc(N[C@@H](C)c3ccc(F)cn3)ncc2Cl)n[nH]1 [AZ23] + O=C(c1cc(Cc2n[nH]c(=O)c3ccccc23)ccc1F)N1CCN(C(=O)C2CC2)CC1 [Olaparib] (partner 8 µM) is ____.
Completion: 0.327

Prompt: Fill blank: measured relative viability of the compound CC(C)Oc1cc(Nc2nc(N[C@@H](C)c3ccc(F)cn3)ncc2Cl)n[nH]1 [AZ23] + C[C@@H](Oc1cc(-c2cnn(C3CCNCC3)c2)cnc1N)c1c(Cl)ccc(F)c1Cl [Crizotinib] (partner 1 µM) is ____.
Completion: 0.943

Prompt: Fill blank: measured relative viability of the compound CC(C)Oc1cc(Nc2nc(N[C@@H](C)c3ccc(F)cn3)ncc2Cl)n[nH]1 [AZ23] + Nc1ncn([C@H]2C[C@H](O)[C@@H](CO)O2)c(=O)n1 [Decitabine] (partner 2 µM) is ____.
Completion: 0.281

* * *

Tested on: NCI-H1703
Assay: relative viability (nuclei count vs DMSO), 5 days (fraction); higher = more cells survive
Conditions: first compound 0.1265 µM
I'd be grateful if you could share measured relative viability for these entries.
Answer field: number only, no words.

Prompt: Fill blank: measured relative viability of the compound COc1cc(N2CCC(C(N)=O)CC2)ccc1Nc1nc(N)c(Cl)c(Nc2ccccc2S(=O)(=O)C(C)C)n1 [HG-5-88-01] + O=C(c1cc(Cc2n[nH]c(=O)c3ccccc23)ccc1F)N1CCN(C(=O)C2CC2)CC1 [Olaparib] (partner 8 µM) is ____.
Completion: 0.386

Prompt: Fill blank: measured relative viability of the compound COc1cc(N2CCC(C(N)=O)CC2)ccc1Nc1nc(N)c(Cl)c(Nc2ccccc2S(=O)(=O)C(C)C)n1 [HG-5-88-01] + CC1(C)CCC(c2ccc(Cl)cc2)=C(CN2CCN(c3ccc(C(=O)NS(=O)(=O)c4ccc(N[C@H](CCN5CCOCC5)CSc5ccccc5)c(S(=O)(=O)C(F)(F)F)c4)cc3)CC2)C1 [Navitoclax] (partner 0.5 µM) is ____.
Completion: 1.22

Prompt: Fill blank: measured relative viability of the compound C[C@@H]1CN(CC(=O)Nc2ccc3c(c2)Cc2cccc(-c4cc(=O)cc(N5CCOCC5)o4)c2S3)C[C@H](C)O1 + Cc1nc(NC(=O)N2CCC[C@H]2C(N)=O)sc1-c1ccnc(C(C)(C)C(F)(F)F)c1 [Alpelisib] (partner 2 µM) is ____.
Completion: 0.33

Prompt: Fill blank: measured relative viability of the compound COc1cc(N2CCC(C(N)=O)CC2)ccc1Nc1nc(N)c(Cl)c(Nc2ccccc2S(=O)(=O)C(C)C)n1 [HG-5-88-01] + COc1cc2c(Oc3ccc(NC(=O)C4(C(=O)Nc5ccc(F)cc5)CC4)cc3F)ccnc2cc1OCCCN1CCOCC1 [Foretinib] (partner 0.25 µM) is ____.
Completion: 0.349
